Biological target: TLR9 (Homo sapiens, UniProt Q9NR96)
Sequence (Q9NR96 26-1032): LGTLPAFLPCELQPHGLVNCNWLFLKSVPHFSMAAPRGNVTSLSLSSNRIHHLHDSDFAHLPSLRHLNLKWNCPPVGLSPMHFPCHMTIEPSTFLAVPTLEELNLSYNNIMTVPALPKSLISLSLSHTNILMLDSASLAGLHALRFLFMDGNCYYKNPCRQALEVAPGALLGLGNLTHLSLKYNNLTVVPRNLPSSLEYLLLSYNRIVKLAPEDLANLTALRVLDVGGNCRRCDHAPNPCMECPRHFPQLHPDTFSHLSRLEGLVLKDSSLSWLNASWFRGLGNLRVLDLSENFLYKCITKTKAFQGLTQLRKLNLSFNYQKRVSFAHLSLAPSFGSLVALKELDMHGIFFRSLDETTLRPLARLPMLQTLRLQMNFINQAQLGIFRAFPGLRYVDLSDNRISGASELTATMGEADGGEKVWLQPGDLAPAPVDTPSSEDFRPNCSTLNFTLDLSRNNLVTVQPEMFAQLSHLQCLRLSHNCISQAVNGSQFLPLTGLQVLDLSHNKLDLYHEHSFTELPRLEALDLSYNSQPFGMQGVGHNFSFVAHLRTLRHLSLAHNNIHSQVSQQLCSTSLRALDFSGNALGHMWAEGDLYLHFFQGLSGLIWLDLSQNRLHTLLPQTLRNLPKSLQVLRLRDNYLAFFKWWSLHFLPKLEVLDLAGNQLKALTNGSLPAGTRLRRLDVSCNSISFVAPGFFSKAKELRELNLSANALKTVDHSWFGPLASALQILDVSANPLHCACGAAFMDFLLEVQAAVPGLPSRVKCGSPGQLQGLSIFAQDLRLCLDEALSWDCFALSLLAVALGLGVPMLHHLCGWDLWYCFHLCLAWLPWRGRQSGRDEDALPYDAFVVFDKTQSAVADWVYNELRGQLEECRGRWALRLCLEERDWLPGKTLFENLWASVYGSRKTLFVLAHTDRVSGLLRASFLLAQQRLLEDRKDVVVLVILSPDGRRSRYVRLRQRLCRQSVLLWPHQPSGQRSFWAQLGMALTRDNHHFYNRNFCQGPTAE
Assay: HEK293-Blue-hTLR-9 cells assay (SEAP reporter, ODN2006 stimulation)
Assay type: cell-based
Parameters: host or cells: HEK293 (HEK-Blue hTLR9)
Conditions: HEK293-Blue-hTLR9 cells, ODN2006, 20 hrs; read-out: HEK/hTLR9 IC50
PARAMETER_MEASURED: pIC50
Formally, pIC50 is defined as -log10 of the concentration c, with c in mol/L.

For orientation, consider the following solved cases.
* C[C@H]1CN(c2ccnc3c2cnn3C)Cc2ccc(N3C[C@]4(CCNC4)CC3=O)cc21 (single isomer, unassigned) | 6.48
* C[C@H]1CN(c2ccnc3c2cnn3C)Cc2ccc(OC[C@@H]3CNCCN3)cc21 | 7.00
* Cc1cc(N2Cc3ccc(N4CCN(C)CC4)nc3[C@@H](C)C2)c2cnn(C)c2n1 | 6.55

Field request: pIC50 | item: C[C@H]1CN(c2ccnc3c2cnn3C)Cc2ccc(N3CCN(C(=O)C4CCNCC4)CC3)cc21 6.98

Another compound: CC1CN(c2ccc3c(c2)[C@@H](C)CN(c2ccnc4c2cnn4C)C3)CCN1 (some centres unmarked) 6.51

How about this compound: CC1CN(c2ccnc3c2cnn3C)Cc2ccc(N3CCC4(CCNCC4)CC3)cc21 (centres unmarked) 6.56

Field entry: COC[C@H]1CN(c2cc3c(cn2)CN(c2cc(C)nc4c2cnn4C)C[C@@H]3C)CCN1 6.66

Would you kindly repeat that for Cc1cc(N2Cc3ccc(N4C[C@@H](N)[C@H](O)C4)cc3[C@@H](C)C2)c2cnn(C)c2n1 ? 6.64

These measurements were taken from patent US20240317735A1.
